- MEASUREMENT TARGET: human CSNK1D (Homo sapiens)
- Sequence (P48730 whole entry): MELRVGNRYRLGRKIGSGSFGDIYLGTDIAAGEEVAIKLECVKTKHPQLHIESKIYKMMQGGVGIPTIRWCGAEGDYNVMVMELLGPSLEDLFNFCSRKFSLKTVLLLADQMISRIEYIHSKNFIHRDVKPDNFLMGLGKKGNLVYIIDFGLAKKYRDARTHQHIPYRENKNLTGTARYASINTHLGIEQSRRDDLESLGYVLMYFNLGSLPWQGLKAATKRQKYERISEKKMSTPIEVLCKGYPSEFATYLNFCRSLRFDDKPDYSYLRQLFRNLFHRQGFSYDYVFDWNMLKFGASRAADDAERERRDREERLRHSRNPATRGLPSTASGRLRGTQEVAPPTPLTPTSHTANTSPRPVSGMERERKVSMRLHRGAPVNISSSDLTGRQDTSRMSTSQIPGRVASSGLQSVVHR
- RUN DESCRIPTION: Whole Cell nBRET CSNK1D Binding Assay
- REPORTED CONDITIONS: living CHO cells stably expressing human CSNK1D tagged with nanoluciferase; NanoBret tracer 130 nM; 2 hours at 37 C
ENDPOINT NAME: IC50 (nM)

Some molecules with recorded IC50:
Cc1n[nH]c2nccc(-c3c(-c4ccc(F)cn4)nn4c3CO[C@@](C)(C(F)(F)F)C4)c12 (single isomer, unassigned): 124
Cc1cc(-c2c(-c3ccc(F)cn3)nn3c2C2CC2C3)c2cn[nH]c2n1 (racemic): 55
Fc1ccc(-c2nn3c(c2-c2ccnc4[nH]ncc24)[C@@H]2CC[C@H]3C2)cc1 (single isomer, unassigned): 3
Cn1cc2nccc(-c3c(-c4ccc(F)cn4)nn4c3COC(C)(C)C4)c2n1: 999
CCC(=O)Nc1cc(-c2c(-c3ccc(F)cn3)nn3c2COC(C)(C)C3)c(C)cn1: 738
CC1(C)Cn2nc(-c3cscn3)c(-c3ccnc4[nH]ncc34)c2CO1: 343
CC1(C)Cn2nc(-c3c(F)cncc3F)c(-c3ccnc4[nH]ncc34)c2CO1: 702
CC1(C)Cn2nc(-c3ccc(F)cn3)c(-c3cc(CCC(F)(F)F)nc4[nH]ncc34)c2CO1: 5380

(1) Cc1nc(-c2c(-c3ccc(F)cc3)nn3c2CCC(F)(F)C3)c2cn[nH]c2n1
(2) Fc1ccc(-c2nn3c(c2-c2ccnc4[nH]ncc24)CCC(F)(COC(F)(F)F)C3)nc1 (single isomer, unassigned) [Example 317]
Request: Kindly identify which of 1 and 2 has the larger recorded IC50 value. I would appreciate it if you answered with the label of your choice.
Result: 2
(2: 8520 nM, 1: 74 nM)
